- target under test: UniProt P00533
- Sequence (P00533 25-1210): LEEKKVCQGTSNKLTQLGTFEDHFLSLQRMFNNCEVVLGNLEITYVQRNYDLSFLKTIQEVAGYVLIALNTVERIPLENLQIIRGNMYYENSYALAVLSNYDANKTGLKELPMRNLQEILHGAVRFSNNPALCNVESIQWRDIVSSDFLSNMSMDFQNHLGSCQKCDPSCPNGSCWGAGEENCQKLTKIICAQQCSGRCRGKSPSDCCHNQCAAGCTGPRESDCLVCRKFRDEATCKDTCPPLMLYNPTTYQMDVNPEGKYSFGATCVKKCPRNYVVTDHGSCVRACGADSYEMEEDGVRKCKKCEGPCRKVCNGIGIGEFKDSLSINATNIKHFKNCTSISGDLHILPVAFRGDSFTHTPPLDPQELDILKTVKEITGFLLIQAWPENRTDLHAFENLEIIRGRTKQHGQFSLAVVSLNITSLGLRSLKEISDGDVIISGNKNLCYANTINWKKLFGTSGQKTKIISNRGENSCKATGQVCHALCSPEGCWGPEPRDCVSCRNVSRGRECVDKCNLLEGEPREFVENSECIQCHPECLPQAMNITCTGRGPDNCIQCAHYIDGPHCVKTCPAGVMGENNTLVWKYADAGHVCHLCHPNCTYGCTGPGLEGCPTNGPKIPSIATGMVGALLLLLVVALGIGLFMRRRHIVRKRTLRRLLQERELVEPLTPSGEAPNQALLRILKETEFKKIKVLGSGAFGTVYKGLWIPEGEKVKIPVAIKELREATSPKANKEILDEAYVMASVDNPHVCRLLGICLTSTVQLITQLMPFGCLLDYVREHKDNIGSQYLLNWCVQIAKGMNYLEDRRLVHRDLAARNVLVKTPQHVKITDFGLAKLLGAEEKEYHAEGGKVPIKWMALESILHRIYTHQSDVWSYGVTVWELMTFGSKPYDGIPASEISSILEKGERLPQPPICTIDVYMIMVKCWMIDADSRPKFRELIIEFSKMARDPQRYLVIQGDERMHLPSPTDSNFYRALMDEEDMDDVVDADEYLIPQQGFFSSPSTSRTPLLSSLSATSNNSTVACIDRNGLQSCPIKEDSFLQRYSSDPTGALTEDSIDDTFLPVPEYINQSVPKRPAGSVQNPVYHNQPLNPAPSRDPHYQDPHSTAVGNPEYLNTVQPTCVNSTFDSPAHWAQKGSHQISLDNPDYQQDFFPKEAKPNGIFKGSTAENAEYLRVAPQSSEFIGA
- method notes: EGFRTK inhibition
- Type: biochemical
- reported conditions: % inhibition at 10 micromolar compound
measured quantity: EGFRTK @ 10 μm (%)

{"molecule": "O=C(NCc1cc(Br)ccc1F)c1[nH]c2ccc(F)cc2c1-c1ccccc1 [Compound 2ll]", "measured quantity": "EGFRTK @ 10 μm", "unit of measure": "%", "numeric value": 10}
{"molecule": "O=C(Nc1cccc(CO)c1)c1cc2cc(F)ccc2[nH]1 [Compound 1yyy]", "measured quantity": "EGFRTK @ 10 μm", "unit of measure": "%", "numeric value": 11}
{"molecule": "CCCOc1ccc(CNC(=O)c2cc3cc(F)ccc3[nH]2)cc1O [Compound 1nnnn]", "measured quantity": "EGFRTK @ 10 μm", "unit of measure": "%", "numeric value": 17}
{"molecule": "O=C(NCc1ccccc1)c1cc2cc(F)ccc2[nH]1 [Compound 1bb]", "measured quantity": "EGFRTK @ 10 μm", "unit of measure": "%", "numeric value": 19}
{"molecule": "O=C(NCc1ccc(O)c(O)c1)c1cc2cc(F)ccc2[nH]1 [Compound 1gggg]", "measured quantity": "EGFRTK @ 10 μm", "unit of measure": "%", "numeric value": 25}

---

- target under test: pp60^c-src (Homo sapiens)
- Sequence (P12931 whole entry): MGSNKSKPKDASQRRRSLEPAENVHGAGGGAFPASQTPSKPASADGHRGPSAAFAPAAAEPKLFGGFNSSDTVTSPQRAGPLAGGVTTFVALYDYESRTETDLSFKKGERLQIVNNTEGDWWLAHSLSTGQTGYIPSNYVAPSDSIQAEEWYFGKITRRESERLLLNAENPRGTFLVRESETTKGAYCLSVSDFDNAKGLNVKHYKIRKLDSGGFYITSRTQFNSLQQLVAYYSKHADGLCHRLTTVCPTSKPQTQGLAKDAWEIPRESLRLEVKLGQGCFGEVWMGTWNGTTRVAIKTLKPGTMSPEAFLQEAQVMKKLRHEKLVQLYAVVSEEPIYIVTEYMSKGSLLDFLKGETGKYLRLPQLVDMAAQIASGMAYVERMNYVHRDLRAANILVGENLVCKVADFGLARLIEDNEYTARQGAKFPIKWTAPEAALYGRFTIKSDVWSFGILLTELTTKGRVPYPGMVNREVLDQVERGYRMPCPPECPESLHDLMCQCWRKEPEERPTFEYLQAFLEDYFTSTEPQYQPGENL
- method notes: Cellular Mimetic Src assay (RR-SRC phosphorylation)
- reported conditions: read-out: % Inhibition of 2 mM RR-src at Inhibitor Concentration (100 μM)
Below, each entry is listed with its recorded inhibition at 100 µM.

{"compound": "CCOc1cc(/C=C(\\C#N)C(N)=O)cc(CSc2ccccc2)c1O [drawing 65, ST 638, reference compound]", "inhibition at 100 µM": "37%"}
{"compound": "O=C(Nc1cccc(O)c1)c1cc2ccc(O)cc2cc1O", "inhibition at 100 µM": "89%"}
{"compound": "O=C(Nc1cccc(O)c1)c1ccc2cc(O)ccc2c1", "inhibition at 100 µM": "45%"}
